# experiment_description: Determination of Absolute Bioavailability
# test_conditions: rat, in vivo; rats, intravenous administration and oral administration

{"compound": "CC(C)OC(=O)C(C)(C)N[P@](=O)(CO[C@H](C)Cn1cnc2c(N)ncnc21)Oc1ccccc1.O=C(O)/C=C/C(=O)O [crystal form A]", "bioavailability / %": 81}
